method summary: Intrinsic clearance in human hepatocytes measured per million cells at 2 uM incubated for 15 to 120 mins by LC-MS/MS analysis
Type: ADME, cell-based, Hepatocyte
cond: time 15-120 min, read-out: CLH
quantity name: hepatocyte CLint at 2 µM
Remember to quote the unit after the number.

{"columns": ["cpd smiles", "hepatocyte CLint at 2 µM"],
 "data": [
  ["OC[C@H]1O[C@@H](Sc2cncc(Br)c2)[C@H](O)[C@@H](n2cc(-c3cc(F)c(F)c(F)c3)nn2)[C@H]1O", "0.15 µL/min/1e6 cells"]
]}

Please find the next molecule below.
Item under review: `OC[C@H]1O[C@@H](Sc2ccc(Cl)c(Cl)c2)[C@H](O)[C@@H](n2cc(-c3cc(F)c(F)c(F)c3)nn2)[C@H]1O` . Reported hepatocyte CLint at 2 µM?
0.7 µL/min/1e6 cells

* * *

The compounds listed here are annotated with their logD.
method summary: Lipophilicity, log D of compound in potassium phosphate buffer/octanol at pH 7.4 by shake flask method
Assay type: physicochemical
Please reply with the number alone, leaving off any unit.

Look at this compound and give its reported logD. `OC[C@H]1O[C@@H](Sc2cncc(Br)c2)[C@H](O)[C@@H](n2cc(-c3cc(F)c(F)c(F)c3)nn2)[C@H]1O`
3

Return reported logD; argument: `OC[C@H]1O[C@@H](Sc2ccc(Cl)c(Cl)c2)[C@H](O)[C@@H](n2cc(-c3cc(F)c(F)c(F)c3)nn2)[C@H]1O`
4.6
